Test system: cardiac fibroblasts of rats
Experiment: Myocardial fibrosis model, MTT assay
Assay type: cell-based
Details: cardiac fibroblasts of rats; 1 μmol/L; 12 h; MTT, OD at 570 nm; blank group 0.353 ± 0.001
Where no end group is shown, it is not given here.

substance	systemTested	Optical density value, 12 h
TSLDASIIWAMMQNGGGGSDKPGGGGLSKL [Polypeptide III]	cardiac fibroblasts of rats	0.349
TSLDASIIWAMMQNGGGGLSKLGGGGSDKP [Polypeptide IV]	cardiac fibroblasts of rats	0.362
Ac-SDKPGGGGLSKLGGGGTSLDASIIWAMMQN (N-terminus assumed) [Polypeptide I]	cardiac fibroblasts of rats	0.362
LSKLGGGGTSLDASIIWAMMQNGGGGSDKP [Polypeptide VI]	cardiac fibroblasts of rats	0.340
Ac-SDKPGGGGTSLDASIIWAMMQNGGGGLSKL (N-terminus assumed) [Polypeptide II]	cardiac fibroblasts of rats	0.352
LSKLGGGGSDKPGGGGTSLDASIIWAMMQN [Polypeptide V]	cardiac fibroblasts of rats	0.357
